Each entry below carries its measured Ki, system: human PDE2A1 (Homo sapiens (Human), UniProt O00408).
Sequence (O00408 other isoform, or with tags, fused parts or gaps): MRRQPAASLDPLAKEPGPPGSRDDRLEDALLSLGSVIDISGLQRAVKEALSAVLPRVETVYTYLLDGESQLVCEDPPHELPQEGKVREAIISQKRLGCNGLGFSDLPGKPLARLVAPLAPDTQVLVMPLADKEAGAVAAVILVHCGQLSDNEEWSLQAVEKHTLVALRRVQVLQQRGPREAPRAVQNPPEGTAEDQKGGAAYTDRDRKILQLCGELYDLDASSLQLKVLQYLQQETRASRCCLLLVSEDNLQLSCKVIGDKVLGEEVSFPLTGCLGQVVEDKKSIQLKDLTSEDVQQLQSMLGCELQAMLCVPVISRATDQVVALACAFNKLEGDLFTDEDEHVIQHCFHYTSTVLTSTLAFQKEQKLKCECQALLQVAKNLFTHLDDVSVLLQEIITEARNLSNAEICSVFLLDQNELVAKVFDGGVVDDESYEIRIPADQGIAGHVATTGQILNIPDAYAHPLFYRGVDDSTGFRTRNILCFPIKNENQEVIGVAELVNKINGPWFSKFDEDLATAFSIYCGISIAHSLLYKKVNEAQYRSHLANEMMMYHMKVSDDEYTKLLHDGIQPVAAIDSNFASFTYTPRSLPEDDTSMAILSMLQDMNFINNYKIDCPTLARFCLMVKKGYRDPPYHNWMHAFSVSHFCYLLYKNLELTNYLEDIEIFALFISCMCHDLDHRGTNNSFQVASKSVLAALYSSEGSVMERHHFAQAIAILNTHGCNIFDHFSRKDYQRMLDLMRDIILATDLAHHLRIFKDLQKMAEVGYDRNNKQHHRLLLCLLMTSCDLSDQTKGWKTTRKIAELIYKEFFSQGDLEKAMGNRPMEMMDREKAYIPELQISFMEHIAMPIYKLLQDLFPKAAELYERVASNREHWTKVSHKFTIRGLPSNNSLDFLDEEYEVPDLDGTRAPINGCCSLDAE
Kindly format the answer as number then unit.

>>> observed_result("Cc1nc(-c2cn(C(C)c3ccc(C(F)(F)F)c(F)c3F)nn2)cc(=O)[nH]1 (single isomer, unassigned)")
"17.7 nM"
>>> observed_result("Cc1nc(-c2cn(C(C)c3ccc(C(F)(F)F)cc3)nn2)cc(=O)[nH]1 (single isomer, unassigned) [Example 17]")
"36.2 nM"

Lab note: next molecule to report on.
Please state recorded Ki (tested on human PDE2A1 (Homo sapiens (Human), UniProt O00408)) of Cc1nc(-c2cn(C(C)c3ccc(C4CC4)cc3Cl)nn2)cc(=O)[nH]1 (single isomer, unassigned)
58.4 nM

Data provenance: patent US10358435B2
